# System: Pasteurella multocida
# ASSAY PROCEDURE: Minimum inhibitory concentration against Pasteurella multocida
# Assay type: functional

{"columns": ["COMPOUND SMILES", "SCALE UNIT", "MIC"],
 "data": [
  ["CC[C@H]1OC(=O)[C@H](C)[C@H]2OC3(CCN(C(=O)c4ccnc5ccccc45)CC3)O[C@](C)(C[C@@H](C)CN(C)[C@H](C)[C@@H](O)[C@]1(C)O)[C@H](O[C@@H]1O[C@H](C)C[C@H](N(C)C)[C@H]1O)[C@H]2C", "µg/mL", 0.1],
  ["CC[C@H]1OC(=O)[C@H](C)[C@H]2OC3(CCN(CCc4ccc(Cl)c(Cl)c4)CC3)O[C@](C)(C[C@@H](C)CN[C@H](C)[C@@H](O)[C@]1(C)O)[C@H](O[C@@H]1O[C@H](C)C[C@H](N(C)C)[C@H]1O)[C@H]2C", "µg/mL", 0.05],
  ["CC[C@H]1OC(=O)[C@H](C)[C@H]2OC3(CCN(C(=O)c4ccc[nH]4)CC3)O[C@](C)(C[C@@H](C)CN[C@H](C)[C@@H](O)[C@]1(C)O)[C@H](O[C@@H]1O[C@H](C)C[C@H](N(C)C)[C@H]1O)[C@H]2C", "µg/mL", 0.05],
  ["CC[C@H]1OC(=O)[C@H](C)[C@H]2OC3(CCN(C(=O)c4ccc5ccccc5n4)CC3)O[C@](C)(C[C@@H](C)CN[C@H](C)[C@@H](O)[C@]1(C)O)[C@H](O[C@@H]1O[C@H](C)C[C@H](N(C)C)[C@H]1O)[C@H]2C", "µg/mL", 0.05],
  ["CC[C@H]1OC(=O)[C@H](C)[C@H]2OC3(CCN(C(=O)c4cncc(Cl)c4Cl)CC3)O[C@](C)(C[C@@H](C)CN[C@H](C)[C@@H](O)[C@]1(C)O)[C@H](O[C@@H]1O[C@H](C)C[C@H](N(C)C)[C@H]1O)[C@H]2C", "µg/mL", 0.1],
  ["CC[C@H]1OC(=O)[C@H](C)[C@H]2OC3(CCN(C(=O)c4ccccn4)CC3)O[C@](C)(C[C@@H](C)CN(C)[C@H](C)[C@@H](O)[C@]1(C)O)[C@H](O[C@@H]1O[C@H](C)C[C@H](N(C)C)[C@H]1O)[C@H]2C", "µg/mL", 0.1],
  ["CC[C@H]1OC(=O)[C@H](C)[C@H]2OC3(CCN(C(=O)c4ccccc4)CC3)O[C@](C)(C[C@@H](C)CN(C)[C@H](C)[C@@H](O)[C@]1(C)O)[C@H](O[C@@H]1O[C@H](C)C[C@H](N(C)C)[C@H]1O)[C@H]2C", "µg/mL", 0.1],
  ["CC[C@H]1OC(=O)[C@H](C)[C@H]2OC3(CCN(C(=O)c4ccoc4)CC3)O[C@](C)(C[C@@H](C)CN[C@H](C)[C@@H](O)[C@]1(C)O)[C@H](O[C@@H]1O[C@H](C)C[C@H](N(C)C)[C@H]1O)[C@H]2C", "µg/mL", 0.05],
  ["CC[C@H]1OC(=O)[C@H](C)[C@H]2OC3(CCN(C(=O)c4ccccc4)CC3)O[C@](C)(C[C@@H](C)CN[C@H](C)[C@@H](O)[C@]1(C)O)[C@H](O[C@@H]1O[C@H](C)C[C@H](N(C)C)[C@H]1O)[C@H]2C", "µg/mL", 0.1]
]}
